target: NOS1, P29475; experiment: holdup assay; design: key: below the threshold = too weak to quantify, mostly under pKd 3.1 to 4; details: plain residues with an end cap or a label only (N-terminal biotin on a linker: ado-ado)
Sequence (P29475 9-101): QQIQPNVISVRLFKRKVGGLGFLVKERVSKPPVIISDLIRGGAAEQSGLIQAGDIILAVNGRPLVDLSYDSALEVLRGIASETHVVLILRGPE
The following binders are listed with their measured pKd values.

# binder, pKd
data = [
    ("THREVKFTSL [CD46, P15529]", 3.75),
    ("ELKAEDEVQI [DCHS2, Q6V1P9]", 3.74),
    ("KSRPENGTVC [TMEM178B, H3BS89]", 3.47),
]
